Test system: IL-17 production by CD4 T cells
procedure summary: Human Th17 Assay
Assay type: cell-based
cond: 3 days
# log10 of IC50 per entry
Note the log scale: values are log10 of IC50 expressed in nM.

| compound | target desc | log10 of IC50 |
| --- | --- | --- |
| COc1nc2ccc(C(C)(O)c3cnc(C)n3C)cc2c(Cl)c1Cc1ccc(C(F)(F)F)cc1 (single isomer, unassigned) [Example 12c] | IL-17 production by CD4 T cells | 1.90 |
| COc1nc2ccc(C(C)(O)c3cnnn3C)cc2c(Cl)c1Cc1ccc(C(F)(F)F)cc1 (single isomer, unassigned) [Example 11c] | IL-17 production by CD4 T cells | 1.76 |

The compound COc1nc2ccc(C(C)(O)c3cnnn3C)cc2c(Cl)c1Cc1ccc(C(F)(F)F)cc1 (single isomer, unassigned) [Example 11b] showed log10 of IC50 equal to 2.94

So, COc1nc2ccc(C(C)(O)c3cnc(C)n3C)cc2c(Cl)c1Cc1ccc(C(F)(F)F)cc1 (single isomer, unassigned) [Example 12b] ? Its log10 of IC50 was 3.32

Reported log10 of IC50 of COc1nc2ccc(C(C)(O)c3ccc(C)nc3C)cc2c(Cl)c1Cc1ccc(C(F)(F)F)cc1 (single isomer, unassigned) [Example 13b] : 2.23

Reported log10 of IC50 ( COc1nc2ccc(C(C)(O)c3ccc(C)nc3C)cc2c(Cl)c1Cc1ccc(C(F)(F)F)cc1 (single isomer, unassigned) [Example 13c] ) = 1.78

Entry under test: C#CC(O)(c1ccc2nc(OC)c(Cc3ccc(C(F)(F)F)cc3)c(Cl)c2c1)c1cnc(C)n1C (single isomer, unassigned) [Example 14c] . Its log10 of IC50 was 2.46

* * *

Known pIC50 of a selection of compounds
target desc: human RORγt LBD (Homo sapiens (Human))
procedure summary: RORγt Reporter Assay
cond: HEK293T cells
Scale explanation: pIC50 corresponds to minus log10 of a concentration expressed in moles per litre.

Some entries whose results are on file:
| compound | test value |
| --- | --- |
| C#CC(O)(c1ccc2nc(OC)c(Cc3ccc(C(F)(F)F)cc3)c(Cl)c2c1)C1CN(C(C)=O)C1 (single isomer, unassigned) [Example 7c] | 7.01 |
| COc1nc2ccc(C(C)(O)c3cnc(C)n3C)cc2c(Cl)c1Cc1ccc(C(F)(F)F)cc1 (centres unmarked) [Example 12a] | 6.43 |
| COc1nc2ccc(C(C)(O)c3cnnn3C)cc2c(Cl)c1Cc1ccc(C(F)(F)F)cc1 (centres unmarked) [Example 11a] | 6.96 |
| COc1nc2ccc(C(C)(O)c3cncn3C)cc2c(Cl)c1Cc1ccc(C(F)(F)F)cc1 (single isomer, unassigned) [Example 9b] | 5.89 |
| COc1nc2ccc(C(C)(O)c3oc(C)nc3C)cc2c(Cl)c1Cc1ccc(C(F)(F)F)cc1 (single isomer, unassigned) [Example 10b] | 6.59 |

The compound listed as COc1nc2ccc(C(C)(O)c3cncn3C)cc2c(Cl)c1Cc1ccc(C(F)(F)F)cc1 (single isomer, unassigned) [Example 9c] has a reported pIC50 of 6.74

pIC50 for COc1nc2ccc(C(C)(O)c3cnnn3C)cc2c(Cl)c1Cc1ccc(C(F)(F)F)cc1 (single isomer, unassigned) [Example 11b] is 6.68

pIC50 reported for this compound C#CC(O)(c1ccc2nc(OC)c(Cc3ccc(C(F)(F)F)cc3)c(Cl)c2c1)c1cnc(C)n1C (single isomer, unassigned) [Example 14b] : 7.18

Please fill in: pIC50 reported for C#CC(O)(c1ccc2nc(OC)c(Cc3ccc(C(F)(F)F)cc3)c(Cl)c2c1)C1CN(C(C)=O)C1 (single isomer, unassigned) [Example 7b] = 6.44

pIC50 reading for C#CC(O)(c1ccc2nc(OC)c(Cc3ccc(C(F)(F)F)cc3)c(Cl)c2c1)c1cnc(C)n1C (single isomer, unassigned) [Example 14c] : 6.51

The recorded pIC50 for entry C#CC(O)(c1ccc2nc(OC)c(Cc3ccc(C(F)(F)F)cc3)c(Cl)c2c1)C1CN(C(=O)OC(C)(C)C)C1 (centres unmarked) equals 5.40

# compound COc1nc2ccc(C(C)(O)c3oc(C)nc3C)cc2c(Cl)c1Cc1ccc(C(F)(F)F)cc1 (single isomer, unassigned) [Example 10c] ; its pIC50 = 6.48

Summary for this compound, CCCCC(O)(c1ccc2nc(Cl)c(-c3ccccc3)c(Cl)c2c1)c1cncn1C (centres unmarked) : pIC50 is 5.82

* * *

// reported RORγt reporter Assay, % inhibition @ 6 μM for each item listed
target desc: human RORγt LBD (Homo sapiens (Human), UniProt P51449)
Sequence (P51449 258-518): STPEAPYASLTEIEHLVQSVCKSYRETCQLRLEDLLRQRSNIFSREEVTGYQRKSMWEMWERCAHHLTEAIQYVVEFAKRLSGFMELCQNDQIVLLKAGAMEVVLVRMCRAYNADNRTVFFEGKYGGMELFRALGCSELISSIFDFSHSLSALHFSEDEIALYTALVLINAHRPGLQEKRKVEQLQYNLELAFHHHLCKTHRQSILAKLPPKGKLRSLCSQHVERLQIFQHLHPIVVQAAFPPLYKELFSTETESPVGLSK
procedure summary: RORγt Reporter Assay
Type: cell-based
cond: HEK293T cells, 6 μM

| compound | test value |
| --- | --- |
| COc1nc2ccc(C(C)(O)c3oc(C)nc3C)cc2c(Cl)c1Cc1ccc(C(F)(F)F)cc1 (single isomer, unassigned) [Example 10b] | 96% |
| COc1nc2ccc(C(C)(O)c3cnnn3C)cc2c(Cl)c1Cc1ccc(C(F)(F)F)cc1 (single isomer, unassigned) [Example 11c] | 99% |
| C#CC(O)(c1ccc2nc(OC)c(Cc3ccc(C(F)(F)F)cc3)c(Cl)c2c1)C1CN(C(C)=O)C1 (single isomer, unassigned) | 94% |

Consider now this further compound.
// RORγt reporter Assay, % inhibition @ 6 μM value for COc1nc2ccc(C(C)(O)c3cnc(C)n3C)cc2c(Cl)c1Cc1ccc(C(F)(F)F)cc1 (single isomer, unassigned) [Example 12c] : 102%

* * *

Form field: IC50 (one value per entry).
target desc: human RORγt LBD (Homo sapiens (Human))
procedure summary: RORγt Reporter Assay
cond: HEK293T cells
Reply numerically in nM, unit not repeated.

// worked examples, IC50 included
| compound | IC50 (nM) |
| --- | --- |
| CCC(O)(c1ccc2nc(OC)c(Cc3ccc(S(C)(=O)=O)cc3)c(Cl)c2c1)c1cncn1C (centres unmarked) | 1700 |
| C#CC(O)(c1ccc2nc(OC)c(Cc3ccc(C(F)(F)F)cc3)c(Cl)c2c1)C1CN(C(C)=O)C1 (centres unmarked) [Example 7a] | 230 |
| COc1nc2ccc(C(C)(O)c3ccc(C)nc3C)cc2c(Cl)c1Cc1ccc(C(F)(F)F)cc1 (single isomer, unassigned) [Example 13c] | 46 |
| COc1nc2ccc(C(C)(O)c3cnc(C)n3C)cc2c(Cl)c1Cc1ccc(C(F)(F)F)cc1 (single isomer, unassigned) [Example 12b] | 500 |
| CC(C)C(O)(c1ccc2nc(Cl)c(-c3ccccc3)c(Cl)c2c1)c1cncn1C (centres unmarked) | 1300 |

C#CC(O)(c1ccc2nc(OC)c(Cc3ccc(C(F)(F)F)cc3)c(Cl)c2c1)c1cnc(C)n1C (centres unmarked) [Example 14a] has a reported IC50 of 210

Looking up COc1nc2ccc(C(C)(O)c3cncn3C)cc2c(Cl)c1Cc1ccc(C(F)(F)F)cc1 (centres unmarked) [Example 9a] , I see its IC50 listed as 280

Per the records, this compound ( CCC(O)(c1ccc2nc(OC)c(Cc3ccc(C(F)(F)F)cc3)c(Cl)c2c1)C1CN(C(=O)OC(C)(C)C)C1 (centres unmarked) ) has IC50 equal to 500

Record COc1nc2ccc(C(C)(O)c3oc(C)nc3C)cc2c(Cl)c1Cc1ccc(C(F)(F)F)cc1 (single isomer, unassigned) [Example 10a] , field IC50: 250

* * *

target desc: human RORγt LBD (Homo sapiens (Human))
procedure summary: RORγt Reporter Assay
Format: cell-based
cond: HEK293T cells, 6 μM
Excerpt: A reporter assay was used to test functional activity of RORγt modulatory compounds on transcriptional activation driven by the RORγt LBD. Cells used in the assay were co-transfected with two constructs. The first construct, pBIND-RORγt LBD, contained the wild type human RORγt LBD fused to the DNA binding domain of the GAL4 protein. The second construct, pGL4.31 (Promega Cat no. C935A), contained multiple GAL4 responsive DNA elements upstream of firefly luciferase. […]
measured quantity: RORγt reporter Assay, % inhibition @ 6 μM (%)
Note: unit % is implicit; provide only the numeric part.

Reference set, count: 2
| compound | test value |
| --- | --- |
| COc1nc2ccc(C(C)(O)c3cncn3C)cc2c(Cl)c1Cc1ccc(C(F)(F)F)cc1 (single isomer, unassigned) | 98 |
| C#CC(O)(c1ccc2nc(OC)c(Cc3ccc(C(F)(F)F)cc3)c(Cl)c2c1)c1cnc(C)n1C (single isomer, unassigned) [Example 14c] | 94 |

Now, please, on to the next compound.
Short answer for COc1nc2ccc(C(C)(O)c3ccc(C)nc3C)cc2c(Cl)c1Cc1ccc(C(F)(F)F)cc1 (single isomer, unassigned) [Example 13c] : RORγt reporter Assay, % inhibition @ 6 μM was 100

* * *

target desc: human RORγt LBD (Homo sapiens (Human))
procedure summary: RORγt Reporter Assay
cond: HEK293T cells
measured quantity: pIC50
Bear in mind: pIC50 is minus log10 of a mol/L concentration; give just that figure.

Look over these answered cases.
| compound | measured quantity | test value |
| --- | --- | --- |
| COc1nc2ccc(C(C)(O)c3cnnn3C)cc2c(Cl)c1Cc1ccc(C(F)(F)F)cc1 (single isomer, unassigned) [Example 11c] | pIC50 | 7.82 |
| COc1nc2ccc(C(C)(O)c3cnc(C)n3C)cc2c(Cl)c1Cc1ccc(C(F)(F)F)cc1 (single isomer, unassigned) [Example 12c] | pIC50 | 7.39 |
| COc1nc2ccc(C(C)(O)c3ccc(C)nc3C)cc2c(Cl)c1Cc1ccc(C(F)(F)F)cc1 (single isomer, unassigned) [Example 13b] | pIC50 | 6.70 |

Short answer for COc1nc2ccc(C(C)(O)c3ccc(C)nc3C)cc2c(Cl)c1Cc1ccc(C(F)(F)F)cc1 (centres unmarked) [Example 13a] : pIC50 was 7.28

meta.source: patent US9346782B2
